assay: HTRF signal interference by compounds, confirmation, artefact control for SUMOylation inhibitor project, biochemical, uHTS (AID 2069); details: HTRF interference counterscreen, fluorescence, at 35 µM, hits give high values
The whole screen tested about 1,200 compounds, of which about 210 (18%) were called active. The list is a sample of the results.
Listed compounds paired with reported inhibition
Give just the numeric value; % need not be written.

Reference set, count: 5
Form field inhibition, entry C=CCn1c(NC(=O)c2ccccc2Cl)c(C#N)c2nc3ccccc3nc21 : 28.9

Looking up COc1ccc(N2C(=O)[C@@H]3[C@H](C2=O)[C@H]2c4ccccc4C=CN2[C@@H]3C(C)=O)cc1 , I found its inhibition recorded as 9.4

Sure, the documented inhibition for CCN(CC)S(=O)(=O)c1ccc(C)c(NC(=O)CSc2ncc(C(F)(F)F)cc2Cl)c1 is -6.95

inhibition reported for this compound O=[N+]([O-])c1ccc(C2Nc3cccc4cccc(c34)N2)cc1 : -5.1

Entry COc1c(C)oc2cc(O)ccc2c1=O , inhibition reported as 41

Further cases:
Form: compound = CC(C)Cn1c(N)c(C(=O)NCc2cccs2)c2nc3ccccc3nc21 ; inhibition = 25.2

Measured inhibition of CN(CCC#N)C(=O)COC(=O)c1c2c(nc3ccccc13)/C(=C/c1ccco1)CC2 : 36.5

Lookup result for COCCNC(=S)Nc1cccc2cnccc12 ; measured inhibition: 4.9

The recorded inhibition for Cc1ccc(NC(=O)CCC(=O)OCC(=O)c2ccc(-c3ccccc3)cc2)cc1 is -1.75

GET /value?item= CCc1ccc2c(c1)c1nc(C)sc1n2CC &field=inhibition returns 0.45

GET /value?item= O=C(O)c1cc2cccc(S(=O)(=O)N3CCOCC3)c2cc1O &field=inhibition returns 49.6

# inhibition of Cc1cccn2cc(-c3ccc(S(=O)(=O)N4CCOCC4)cc3)nc12 = 40.8

The compound identified as COc1ccc(Cc2n[nH]c(=S)n2NC(=O)Nc2ccc(C)cc2)cc1 registered its inhibition at 20.8

inhibition for CCC(C)n1c(NC(=O)c2ccccc2)c(C#N)c2nc3ccccc3nc21 (stereo not given) is 11.8

inhibition for C=CCn1c(N)c(C(=O)NCC2CCCO2)c2nc3ccccc3nc21 (stereo not given) is 42.5

The compound O=C(N/N=C/c1ccc(-c2ccc(Cl)c(C(=O)O)c2)o1)c1cc2c(ccc3ccccc32)o1 showed inhibition equal to 50.7

In plain terms, Cc1cc(C(=O)N/N=C/c2ccc(-c3ccc(C)c(Cl)c3)o2)n[nH]1 has a documented inhibition of 4.9

Entry CC1=NN(c2ccccc2)C(=O)/C1=C/c1cccs1 — recorded inhibition = -3.6

Noted for Nc1ccccc1NC1=CC(=O)CC(c2ccco2)C1 (stereo not given) : its inhibition reads 16.8

# inhibition (compound: O=C(Nc1ccccc1F)Nc1cc(S(=O)(=O)N2CCOCC2)ccc1N1CCCC1 ) is 6.3

meta.source: PubChem BioAssay AID2069
